// provenance: ChEMBL document CHEMBL4002542

Biological target: Alpha-galactosidase A (Homo sapiens, UniProt P06280)
Assay: Non-competitive inhibition of recombinant human alpha GAL-A using varying levels of 4-methylumbelliferyl alpha-D-galactopyranoside substrate at pH 7 Lineweaver-burk plot analysis
MEASURE NAME: pKi
In simple prose, pKi is minus the logarithm base ten of a concentration in moles per litre.

# molecule `O=C(CCCCC1CCCCC1)NC[C@H]1N[C@H](CO)[C@H](O)[C@@H]1O` ; its pKi = 5.70

---

Target: Alpha-galactosidase A (Homo sapiens)
Sequence (P06280 whole entry): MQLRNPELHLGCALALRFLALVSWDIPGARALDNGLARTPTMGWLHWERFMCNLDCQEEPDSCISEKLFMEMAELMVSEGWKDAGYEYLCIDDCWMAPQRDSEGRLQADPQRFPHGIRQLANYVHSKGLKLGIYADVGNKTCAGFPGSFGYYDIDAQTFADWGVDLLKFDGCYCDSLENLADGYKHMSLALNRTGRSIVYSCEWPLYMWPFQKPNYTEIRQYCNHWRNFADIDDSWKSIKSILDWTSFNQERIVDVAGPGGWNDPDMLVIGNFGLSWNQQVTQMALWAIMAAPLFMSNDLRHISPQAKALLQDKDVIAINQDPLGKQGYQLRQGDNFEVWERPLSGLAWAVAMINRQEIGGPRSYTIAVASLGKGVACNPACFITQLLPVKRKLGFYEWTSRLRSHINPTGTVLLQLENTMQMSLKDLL
Assay: Non-competitive inhibition of recombinant human alpha GAL-A using varying levels of 4-methylumbelliferyl alpha-D-galactopyranoside substrate at pH 4.6 Lineweaver-burk plot analysis
MEASURE NAME: Ki

# compound `O=C(CCCCC1CCCCC1)NC[C@H]1N[C@H](CO)[C@H](O)[C@@H]1O` ; its Ki = 7.7 µM
